// data source = paper PMC3914206

- target entity: panel of 442 kinases (Homo sapiens, UniProt Q9P1W9)
- Construct: purchased KINOMEscan
- Sequence (Q9P1W9 whole entry): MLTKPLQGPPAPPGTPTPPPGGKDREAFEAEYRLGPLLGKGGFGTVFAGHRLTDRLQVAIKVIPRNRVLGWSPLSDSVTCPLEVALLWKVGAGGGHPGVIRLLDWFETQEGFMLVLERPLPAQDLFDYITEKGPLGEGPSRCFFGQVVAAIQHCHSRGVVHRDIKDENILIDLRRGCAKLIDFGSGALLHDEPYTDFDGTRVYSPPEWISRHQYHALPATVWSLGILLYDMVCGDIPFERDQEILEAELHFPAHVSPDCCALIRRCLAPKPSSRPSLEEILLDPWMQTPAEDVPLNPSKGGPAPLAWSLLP
- Format: binding
- applied conditions: Compound Concentration 10 µM
- Source text: We assessed the selectivity of members of this scaffold using the KINOMEscan methodology across a near comprehensive panel of 442 kinases [[18,27]].
What KINOMEscan: PIM2 was measured for each of the following?

Worked examples follow.
# smiles repr, target entity, experimental result
rows = [
    ("COc1cc(C(=O)N2CCC(N3CCN(C)CC3)CC2)ccc1Nc1ncc2c(n1)N(C1CCCC1)c1ccccc1C(=O)N2C", "panel of 442 kinases (Homo sapiens, UniProt Q9P1W9)", 100),
    ("COc1cc(C(=O)N2CCC(N3CCN(C)CC3)CC2)ccc1Nc1ncc2c(n1)N(C)c1ccccc1C(=O)N2C", "panel of 442 kinases (Homo sapiens, UniProt Q9P1W9)", 100),
    ("COc1cc(C(=O)N2CCC(N3CCN(C)CC3)CC2)ccc1Nc1ncc2c(n1)N1CCc3cccc(c31)C(=O)N2C", "panel of 442 kinases (Homo sapiens, UniProt Q9P1W9)", 85),
]

We now examine a further compound.
Input: Look up KINOMEscan: PIM2 with panel of 442 kinases (Homo sapiens, UniProt Q9P1W9) for this compound: CCOc1cc(C(=O)N2CCC(N3CCN(C)CC3)CC2)ccc1Nc1ncc2c(n1)N(C1CCCC1)c1ccccc1C(=O)N2C
Output: 100

###

- target entity: panel of 442 kinases (Homo sapiens)
- Construct: purchased KINOMEscan
- Type: binding
- applied conditions: Compound Concentration 10 µM
quantity name: KINOMEscan: MEK1
Give bare numbers.

Examples with their reported KINOMEscan: MEK1 follow.
# smiles repr, experimental result
measured = [
    ("CCOc1cc(C(=O)N2CCC(N3CCN(C)CC3)CC2)ccc1Nc1ncc2c(n1)N(C1CCCC1)c1ccccc1C(=O)N2C", 100),
    ("COc1cc(C(=O)N2CCC(N3CCN(C)CC3)CC2)ccc1Nc1ncc2c(n1)N(C)c1ccccc1C(=O)N2C", 100),
    ("COc1cc(C(=O)N2CCC(N3CCN(C)CC3)CC2)ccc1Nc1ncc2c(n1)N(C1CCCC1)c1ccccc1C(=O)N2C", 68),
]

Now for a further molecule.
Input: Give its KINOMEscan: MEK1 value. Item: COc1cc(C(=O)N2CCC(N3CCN(C)CC3)CC2)ccc1Nc1ncc2c(n1)N1CCc3cccc(c31)C(=O)N2C
Output: 75

###

- target entity: panel of 442 kinases (Homo sapiens, UniProt P53350)
- Construct: purchased KINOMEscan
- Sequence (P53350 whole entry): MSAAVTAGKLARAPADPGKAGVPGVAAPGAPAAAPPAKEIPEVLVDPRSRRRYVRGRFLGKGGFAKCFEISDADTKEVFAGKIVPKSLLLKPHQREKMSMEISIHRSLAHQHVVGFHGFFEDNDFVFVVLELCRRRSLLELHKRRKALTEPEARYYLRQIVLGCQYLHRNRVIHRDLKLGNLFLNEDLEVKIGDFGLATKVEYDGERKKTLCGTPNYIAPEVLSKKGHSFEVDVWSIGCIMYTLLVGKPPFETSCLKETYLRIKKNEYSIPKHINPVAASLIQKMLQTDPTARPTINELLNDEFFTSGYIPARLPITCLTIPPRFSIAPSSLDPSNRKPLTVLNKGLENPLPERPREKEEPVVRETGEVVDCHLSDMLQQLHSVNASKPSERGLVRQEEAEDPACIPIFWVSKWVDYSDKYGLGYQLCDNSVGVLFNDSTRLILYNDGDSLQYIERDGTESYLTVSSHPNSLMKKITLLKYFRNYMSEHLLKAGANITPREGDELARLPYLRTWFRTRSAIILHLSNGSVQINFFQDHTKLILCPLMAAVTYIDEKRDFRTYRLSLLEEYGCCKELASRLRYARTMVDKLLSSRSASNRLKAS
- Assay type: binding
- applied conditions: Compound Concentration 10 µM
quantity name: KINOMEscan: PLK1

Some solved entries appear below for comparison.
# smiles repr, experimental result
rows = [
    ("CCOc1cc(C(=O)N2CCC(N3CCN(C)CC3)CC2)ccc1Nc1ncc2c(n1)N(C1CCCC1)c1ccccc1C(=O)N2C", 95),
    ("COc1cc(C(=O)N2CCC(N3CCN(C)CC3)CC2)ccc1Nc1ncc2c(n1)N(C1CCCC1)c1ccccc1C(=O)N2C", 43),
    ("COc1cc(C(=O)N2CCC(N3CCN(C)CC3)CC2)ccc1Nc1ncc2c(n1)N1CCc3cccc(c31)C(=O)N2C", 0.2),
]

Input: Could you tell me which KINOMEscan: PLK1 is on file for COc1cc(C(=O)N2CCC(N3CCN(C)CC3)CC2)ccc1Nc1ncc2c(n1)N(C)c1ccccc1C(=O)N2C ?
Output: 0.7
